# System: HepG2-ACTB-RAB5A
# Assay Procedure: phenotypically active (imaging signature differs from DMSO and reproducible) at any of 0.3-9 uM (binary (1 = active, 0 = inactive)); higher = active
# Details: treatment time: 24 h
Structures can show the parent of a compound that is named as a salt.
Select the matching outcome among active, inactive

Exercise: Given Nc1nc(N)nc(-c2cc(Cl)ccc2Cl)n1 [Irsogladine maleate] , state the outcome it received in this test.
Solution: inactive

Exercise: Hi team, can someone confirm the assay call for "C=C[C@H]1[C@H](O[C@@H]2O[C@H](CO)[C@@H](O)[C@H](O)[C@H]2O)OC=C2C(=O)NCC[C@H]21" ?
Solution: inactive

Exercise: Could you please tell me the result logged for CSc1ccc2c(c1)N(CCC1CCCCN1C)c1ccccc1S2 (centres undefined) in this assay?
Solution: active

Exercise: Per the assay record, what outcome was assigned to CN(C)C(=N)NC(=N)N [Metformin hydrochloride] ?
Solution: inactive

Exercise: How did this test come out for "OCc1ccccc1O[C@@H]1O[C@H](CO)[C@@H](O)[C@H](O)[C@H]1O" ?
Solution: inactive

// data source = the supplement of paper PMC7411054
